Recorded melting point, one value per entry.

Here's what some known entries look like.
Any idea what its melting point is? The compound is COc1cc(/C=N\NC(=O)CC2=C(C)/C(=C/c3ccc([S+](C)[O-])cc3)c3ccc(F)cc32)cc(OC)c1OC (stereo not drawn)
165 to 167 °C

Another: CC1=C(CC(=O)N/N=C\c2cccc([N+](=O)[O-])c2)c2cc(F)ccc2/C1=C\c1ccc([S+](C)[O-])cc1 (stereo not drawn)
165 to 167 °C

Item: CC1=C(CC(=O)N/N=C\c2ccc(O)c(O)c2O)c2cc(F)ccc2/C1=C\c1ccc([S+](C)[O-])cc1 (stereo not drawn)
195 to 197 °C

Next compound: CC1=C(CC(=O)N/N=C\c2ccccc2)c2cc(F)ccc2/C1=C\c1ccc([S+](C)[O-])cc1 (stereo not drawn)
138 to 140 °C

***
Please look up its melting point: CCOc1ccc(/C=N\NC(=O)CC2=C(C)/C(=C/c3ccc([S+](C)[O-])cc3)c3ccc(F)cc32)cc1OC (stereo not drawn)
158 to 160 °C

Param item: COc1ccc(/C=N\NC(=O)CC2=C(C)/C(=C/c3ccc([S+](C)[O-])cc3)c3ccc(F)cc32)c(OC)c1 (stereo not drawn)
185 to 187 °C

Also CC1=C(CC(=O)N/N=C\c2ccc([N+](=O)[O-])cc2)c2cc(F)ccc2/C1=C\c1ccc([S+](C)[O-])cc1 (stereo not drawn) , if possible.
220 to 222 °C

Ok, now COc1cccc(/C=N\NC(=O)CC2=C(C)/C(=C/c3ccc([S+](C)[O-])cc3)c3ccc(F)cc32)c1O (stereo not drawn)
210 to 212 °C

And CC1=C(CC(=O)N/N=C\c2cc(O)ccc2O)c2cc(F)ccc2/C1=C\c1ccc([S+](C)[O-])cc1 (stereo not drawn) ?
180 to 182 °C

###

# key: entry, value: melting point

Reference set (5 entries):
Query: melting point; subject: CCOc1cc(/C=N\NC(=O)CC2=C(C)/C(=C/c3ccc([S+](C)[O-])cc3)c3ccc(F)cc32)ccc1O (stereo not shown)
193 to 195 °C

Same for CC1=C(CC(=O)N/N=C\c2ccccc2[N+](=O)[O-])c2cc(F)ccc2/C1=C\c1ccc([S+](C)[O-])cc1 (stereo not shown)
148 to 150 °C

Please do the same for COc1ccc(/C=N\NC(=O)CC2=C(C)/C(=C/c3ccc([S+](C)[O-])cc3)c3ccc(F)cc32)cc1OC (stereo not shown) as well.
230 to 232 °C

Then what about the compound COc1ccc(/C=N\NC(=O)CC2=C(C)/C(=C/c3ccc([S+](C)[O-])cc3)c3ccc(F)cc32)c(OC)c1OC (stereo not shown) ?
185 to 187 °C

Similarly, COc1cc(/C=N\NC(=O)CC2=C(C)/C(=C/c3ccc([S+](C)[O-])cc3)c3ccc(F)cc32)cc(OC)c1O (stereo not shown) ?
218 to 220 °C

Others:
Dear colleague, I am looking for the recorded melting point of the following compound: CC1=C(CC(=O)N/N=C\c2ccc(Cl)cc2)c2cc(F)ccc2/C1=C\c1ccc([S+](C)[O-])cc1 (stereo not shown)
228 to 230 °C

Next record, please: COc1ccc(/C=N\NC(=O)CC2=C(C)/C(=C/c3ccc([S+](C)[O-])cc3)c3ccc(F)cc32)cc1O (stereo not shown)
208 to 210 °C
